The values you see were collected from PubChem BioAssay (NCI).

Examples of compounds with documented GI50 follow.
Test system: ACHN renal
Run Description: NCI tumour cell line growth inhibition, 48 h

Use the examples below as a reference point.
- Compound: "Cc1ccc(Cl)cc1Nc1nc(C(F)(F)F)ccc1C(N)=O"
  System Under Test: "ACHN renal"
  GI50: "3.67 µM"
- Compound: "CCn1cc(C2NC(=O)c3ccccc3N2)c2cccc(C)c21 (centres undefined)"
  System Under Test: "ACHN renal"
  GI50: "0.685 µM"
- Compound: "C[C@H](Nc1ccc2c(c1)OCCn1cc(N3C(=O)OC[C@H]3C(F)F)nc1-2)C(N)=O"
  System Under Test: "ACHN renal"
  GI50: "5 µM"

Kindly consider the entry below.
IN: Tell me the measured GI50 of `COc1cc(Cl)cc(-c2nn(-c3cccc(NC(=O)c4cccc(C(F)(F)F)c4)c3)cc2-c2ccncc2)c1` , please.
OUT: 7.21 µM
